Numbers sourced from ChEMBL document CHEMBL5291721.

system-tested: Muscarinic acetylcholine receptor M1 (Homo sapiens, UniProt P11229); note: assay procedure not described here
Sequence (P11229 whole entry): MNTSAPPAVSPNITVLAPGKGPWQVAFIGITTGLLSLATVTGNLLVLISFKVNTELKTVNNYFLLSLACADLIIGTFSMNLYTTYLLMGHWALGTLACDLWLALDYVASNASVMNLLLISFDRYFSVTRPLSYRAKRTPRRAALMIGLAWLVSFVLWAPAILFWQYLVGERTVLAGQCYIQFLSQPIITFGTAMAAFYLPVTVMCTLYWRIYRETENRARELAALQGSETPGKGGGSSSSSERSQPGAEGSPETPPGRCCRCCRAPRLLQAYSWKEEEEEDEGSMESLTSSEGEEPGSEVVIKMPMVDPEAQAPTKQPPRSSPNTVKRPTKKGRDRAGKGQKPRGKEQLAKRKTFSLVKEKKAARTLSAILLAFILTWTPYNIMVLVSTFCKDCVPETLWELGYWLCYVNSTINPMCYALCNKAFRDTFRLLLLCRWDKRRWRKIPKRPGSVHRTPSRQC
Assay type: functional
Recorded AC50 for the following molecules

Using the record for CCOC(=O)O[C@]1(C(=O)OCCl)CC[C@H]2[C@@H]3CCC4=CC(=O)C=C[C@]4(C)[C@H]3[C@@H](O)C[C@@]21C [LOTEPREDNOL ETABONATE] , report its AC50.
> 30 µM

Using the record for COc1cc2ncnc(Nc3ccc(F)c(Cl)c3)c2cc1NC(=O)/C=C/CN1CCCCC1 [DACOMITINIB ANHYDROUS] , report its AC50.
11 µM

Using the record for Clc1ccc(C(Cn2ccnc2)OCc2ccsc2Cl)c(Cl)c1 (stereo unspecified) , report its AC50.
> 30 µM

Using the record for `COCC1=C(C(=O)O)N2C(=O)[C@@H](NC(=O)/C(=N\OC)c3csc(N)n3)[C@H]2SC1` , report its AC50.
> 30 µM

Using the record for `C[C@@H](Oc1cc(-c2cnn(C3CCNCC3)c2)cnc1N)c1c(Cl)ccc(F)c1Cl` , report its AC50.
> 30 µM

Using the record for `COc1ccccc1Oc1c(NS(=O)(=O)c2ccc(C(C)(C)C)cc2)nc(-c2ncccn2)nc1OCCO` , report its AC50.
> 10 µM

Using the record for `C=C[C@H]1C[N@@]2CC[C@H]1C[C@@H]2[C@@H](O)c1ccnc2ccc(OC)cc12` , report its AC50.
> 10 µM

###

Recorded AC50 for the following molecules
system-tested: Amine oxidase [flavin-containing] A (Homo sapiens, UniProt P21397); note: assay procedure not described here
Sequence (P21397 whole entry): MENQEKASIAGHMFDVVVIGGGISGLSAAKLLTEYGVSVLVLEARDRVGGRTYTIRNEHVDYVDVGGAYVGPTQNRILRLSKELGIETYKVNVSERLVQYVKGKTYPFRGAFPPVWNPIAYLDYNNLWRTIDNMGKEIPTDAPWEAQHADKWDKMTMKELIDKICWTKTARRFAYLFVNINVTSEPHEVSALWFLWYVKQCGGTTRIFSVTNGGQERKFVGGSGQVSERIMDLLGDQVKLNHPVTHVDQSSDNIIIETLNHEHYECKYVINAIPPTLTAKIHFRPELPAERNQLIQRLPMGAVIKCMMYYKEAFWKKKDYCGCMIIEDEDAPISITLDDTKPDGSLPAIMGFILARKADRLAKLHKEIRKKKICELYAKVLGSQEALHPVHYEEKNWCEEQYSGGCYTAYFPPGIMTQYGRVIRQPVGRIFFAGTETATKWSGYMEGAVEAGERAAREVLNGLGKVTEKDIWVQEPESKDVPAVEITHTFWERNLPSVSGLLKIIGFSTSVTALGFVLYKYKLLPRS
Type: functional

In the examples that follow, each entry is paired with its recorded AC50.
molecule	AC50
CCCC(CCC)C(=O)O [VALPROIC ACID]	> 10 µM
CN1C[C@H](C(=O)N[C@]2(C)O[C@@]3(O)[C@@H]4CCCN4C(=O)[C@H](Cc4ccccc4)N3C2=O)C=C2c3cccc4[nH]cc(c34)C[C@H]21 [ERGOTAMINE]	> 30 µM
CCC[C@H](NC(=O)[C@@H]1[C@H]2CCC[C@H]2CN1C(=O)[C@@H](NC(=O)[C@@H](NC(=O)c1cnccn1)C1CCCCC1)C(C)(C)C)C(=O)C(=O)NC1CC1	> 10 µM
Cc1noc(NS(=O)(=O)c2ccc(N)cc2)c1C [SULFISOXAZOLE]	> 10 µM
C[C@]12CC[C@@H]3c4ccc(O)cc4C[C@@H](CCCCCCCCC[S+]([O-])CCCC(F)(F)C(F)(F)F)[C@H]3[C@@H]1CC[C@@H]2O (some centres not stated) [FULVESTRANT]	> 30 µM
Cn1cnc2c(F)c(Nc3ccc(Br)cc3Cl)c(C(=O)NOCCO)cc21 [SELUMETINIB]	> 10 µM
N[C@@H](CC(=O)N1CCn2c(nnc2C(F)(F)F)C1)Cc1cc(F)c(F)cc1F [SITAGLIPTIN]	> 30 µM
CC1(C)S[C@@H]2[C@H](NC(=O)[C@H](N)c3ccccc3)C(=O)N2[C@H]1C(=O)OCOC(=O)[C@@H]1N2C(=O)C[C@H]2S(=O)(=O)C1(C)C [SULTAMICILLIN]	> 30 µM
CCOC(=O)C1=C[C@]2(CC)CCCN3CCc4c(n1c1ccccc41)[C@@H]32 [VINPOCETINE]	> 30 µM
O=[N+]([O-])c1ccc(O)c2ncccc12 [NITROXOLINE]	> 30 µM

Using the record for O=C1C(CC[S+]([O-])c2ccccc2)C(=O)N(c2ccccc2)N1c1ccccc1 (configuration not stated) [SULFINPYRAZONE] , report its AC50.
> 10 µM

Using the record for Nc1cc(-c2ccncc2)c[nH]c1=O [INAMRINONE] , report its AC50.
> 10 µM

###

Form: system (UniProt:P23975), quantity (AC50), values below.
Sequence (P23975 whole entry): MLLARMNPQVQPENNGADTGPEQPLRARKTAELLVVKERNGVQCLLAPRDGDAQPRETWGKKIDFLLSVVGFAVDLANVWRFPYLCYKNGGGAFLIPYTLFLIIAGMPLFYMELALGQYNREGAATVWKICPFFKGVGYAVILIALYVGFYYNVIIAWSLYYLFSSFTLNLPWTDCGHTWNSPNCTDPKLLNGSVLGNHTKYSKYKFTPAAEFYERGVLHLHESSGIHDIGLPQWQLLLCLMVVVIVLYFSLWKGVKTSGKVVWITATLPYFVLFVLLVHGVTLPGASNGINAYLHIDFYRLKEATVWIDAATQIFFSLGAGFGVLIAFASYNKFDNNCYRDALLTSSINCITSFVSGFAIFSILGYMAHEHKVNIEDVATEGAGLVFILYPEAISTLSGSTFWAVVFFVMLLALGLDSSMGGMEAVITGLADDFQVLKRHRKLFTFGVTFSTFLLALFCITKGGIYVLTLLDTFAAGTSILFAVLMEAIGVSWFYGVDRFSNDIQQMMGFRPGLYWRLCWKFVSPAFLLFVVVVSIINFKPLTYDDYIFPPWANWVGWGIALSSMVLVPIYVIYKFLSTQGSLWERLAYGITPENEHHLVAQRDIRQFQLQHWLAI

In the examples that follow, each entry is paired with its recorded AC50.
> print(dat)
                                   compound   system.tested    value
1  CC(N)Cc1ccc(O)cc1 (stereo not given) [HYDROXYAMPHETAMINE]  UniProt:P23975  9.66 µM
2  Cc1cc(N)c2ccccc2[n+]1CCCCCCCCCC[n+]1c(C)cc(N)c2ccccc21  UniProt:P23975  1.47 µM
3             O=[N+]([O-])c1ccc(O)c2ncccc12  UniProt:P23975  > 30 µM
4  [H]/N=C(\N/C(=N/[H])Nc1ccc(Cl)cc1)NC(C)C  UniProt:P23975  1.07 µM
5  CC[C@H](c1ccc(O)cc1)[C@@H](CC)c1ccc(O)cc1  UniProt:P23975  8.77 µM

Using the record for `CN1C(=O)/C(=N\NC(N)=S)c2ccccc21` , report its AC50.
> 30 µM

Using the record for `CCOC(=O)C1=C[C@@H](OC(CC)CC)[C@H](NC(C)=O)[C@@H](N)C1` , report its AC50.
> 30 µM

Using the record for `C#C[C@]1(O)CC[C@H]2[C@@H]3CCC4=CC(=O)CC[C@@H]4[C@H]3C(=C)C[C@@]21CC` , report its AC50.
> 30 µM

Using the record for `CCOC(=O)N1CSC[C@H]1C(=O)O` , report its AC50.
> 30 µM

Using the record for `CC(C)(C)NC[C@H](O)COc1cccc2c1CCCC2=O` , report its AC50.
> 30 µM

Using the record for CC(CN1CC(=O)NC(=O)C1)N1CC(=O)NC(=O)C1 (stereo not given) , report its AC50.
> 30 µM

Using the record for `CCn1cc(C(=O)O)c(=O)c2cc3c(cc21)OCO3` , report its AC50.
> 30 µM

###

system-tested: B2 bradykinin receptor (Homo sapiens); note: assay procedure not described here
Sequence (P30411 whole entry): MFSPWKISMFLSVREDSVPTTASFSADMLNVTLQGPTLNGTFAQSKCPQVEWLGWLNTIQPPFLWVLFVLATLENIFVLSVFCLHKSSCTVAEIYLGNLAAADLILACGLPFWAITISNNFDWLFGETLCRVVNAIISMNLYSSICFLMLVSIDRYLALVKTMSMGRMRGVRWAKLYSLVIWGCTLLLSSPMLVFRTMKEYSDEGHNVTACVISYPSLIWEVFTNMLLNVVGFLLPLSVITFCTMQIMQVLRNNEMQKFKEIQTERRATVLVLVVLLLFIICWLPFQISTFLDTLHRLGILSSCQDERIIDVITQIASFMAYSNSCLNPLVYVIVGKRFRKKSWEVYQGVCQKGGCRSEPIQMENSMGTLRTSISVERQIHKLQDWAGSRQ
Recorded AC50 for the following molecules

In the examples that follow, each entry is paired with its recorded AC50.
> print(dat)
                                   molecule    value
1  O=C1CCc2cc(OCCCCc3nnnn3C3CCCCC3)ccc2N1 [CILOSTAZOL]  > 30 µM
2  Oc1ccc2c(c1)CC[C@H](c1ccccc1)[C@@H]2c1ccc(OCCN2CCCC2)cc1 [LASOFOXIFENE]  > 30 µM

// switching to the query molecule
Query AC50 on B2 bradykinin receptor (Homo sapiens) for `C[N@+]1(CCF)[C@@H]2CC[C@H]1C[C@@H](OC(=O)C(O)(c1ccccc1)c1ccccc1)C2`
> 30 µM

###

system-tested: Adenosine receptor A3 (Homo sapiens); note: assay procedure not described here
Sequence (P0DMS8 whole entry): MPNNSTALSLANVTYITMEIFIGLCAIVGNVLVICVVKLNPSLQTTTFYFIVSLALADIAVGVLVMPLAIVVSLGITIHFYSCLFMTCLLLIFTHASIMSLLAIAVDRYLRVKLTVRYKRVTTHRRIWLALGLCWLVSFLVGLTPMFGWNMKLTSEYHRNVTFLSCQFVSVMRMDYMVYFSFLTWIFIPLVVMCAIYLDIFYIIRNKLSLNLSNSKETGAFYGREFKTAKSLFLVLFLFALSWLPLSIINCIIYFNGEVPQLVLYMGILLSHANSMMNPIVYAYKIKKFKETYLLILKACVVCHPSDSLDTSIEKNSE
Recorded AC50 for the following molecules

> print(dat)
                                   molecule    value
1  O=C1CN=C(c2ccccn2)c2cc(Br)ccc2N1 [BROMAZEPAM]  > 10 µM
2  CCC(C)C(CC)C(N)=O (stereo not given) [VALNOCTAMIDE]  > 30 µM
3   CC12CC3CC(C)(C1)CC(N)(C3)C2 [MEMANTINE]  > 30 µM
4  O=C1C(CC[S+]([O-])c2ccccc2)C(=O)N(c2ccccc2)N1c1ccccc1 (stereo not given) [SULFINPYRAZONE]  > 10 µM
5  C[C@@H](Oc1cc(-c2cnn(C3CCNCC3)c2)cnc1N)c1c(Cl)ccc(F)c1Cl [CRIZOTINIB]  8.93 µM

Using the record for O=C(O)c1cn(C2CC2)c2cc(N3CCNCC3)c(F)cc2c1=O [CIPROFLOXACIN] , report its AC50.
> 30 µM

Using the record for CCCN(CCC)C(=O)Cc1c(-c2ccc(Cl)cc2)nc2ccc(Cl)cn12 [ALPIDEM] , report its AC50.
11.5 µM
